molecular target: Glucagon-like peptide 1 receptor (Homo sapiens) (UniProt P43220); assay: qHTS of GLP-1 Receptor Inverse Agonists (Inhibition Mode); conditions: HEK293 GLP-1R CRE-luciferase, luminescence, 24 h, GLP-1R form is constitutively active; series mostly up to 38.3 µM; also: nearly all actives have a fitted effect of over 55% in size; also: potency is read from the fitted curve at half-maximal effect
Sequence (P43220 whole entry, looked up): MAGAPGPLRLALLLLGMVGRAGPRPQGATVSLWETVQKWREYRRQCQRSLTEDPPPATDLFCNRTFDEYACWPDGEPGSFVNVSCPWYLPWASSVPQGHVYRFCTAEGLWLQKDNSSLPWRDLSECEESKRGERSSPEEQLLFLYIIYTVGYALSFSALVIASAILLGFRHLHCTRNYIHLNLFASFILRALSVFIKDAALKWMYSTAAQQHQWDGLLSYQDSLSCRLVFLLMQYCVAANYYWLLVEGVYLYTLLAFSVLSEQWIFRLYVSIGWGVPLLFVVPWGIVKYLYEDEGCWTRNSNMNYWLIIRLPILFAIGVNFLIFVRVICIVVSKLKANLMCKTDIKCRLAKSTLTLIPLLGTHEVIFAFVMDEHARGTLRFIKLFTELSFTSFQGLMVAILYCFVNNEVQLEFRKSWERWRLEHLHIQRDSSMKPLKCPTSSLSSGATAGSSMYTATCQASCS
Among all 410,000 compounds or so, about 6,400 (1.6%) were called active. About 20% were inconclusive and are not listed. For the sample, actives were picked, then their nearest neighbours and some compounds at random.
PROPERTY_MEASURED: Potency

Worked examples follow.
CC(C)C[C@H]1CN([C@@H](Cc2ccccc2)CN2CCC[C@@H]2CN2C(=O)C(=O)NC[C@@H]2Cc2ccc(O)cc2)C(=O)C(=O)N1CCc1ccccc1	inactive
O=[N+]([O-])c1ccc(CN2CC(N3CC=CC3)CS2(=O)=O)cc1 (configuration not stated)	inactive
CCOC(=O)N1CCN(C(=O)C[C@@H]2C[C@@]3(C(=O)OC)CC(C)(C)CC=C3N(Cc3ccco3)C2=O)CC1	inactive
COCCNC(=S)N(Cc1cccnc1)Cc1ccc(OC)c(OC)c1	inactive
CC1(C(=O)NS(=O)(=O)c2cccc(F)c2)CCN1C(=O)c1cccc2ccccc12 (configuration not stated)	inactive

Value (Potency, Glucagon-like peptide 1 receptor (Homo sapiens) (UniProt P43220)) for record Cc1ccc(CN(Cc2cccnc2)C(=S)Nc2cc(Cl)ccc2C)cc1 = 10 µM (active)

Glucagon-like peptide 1 receptor (Homo sapiens) (UniProt P43220) Potency of Cc1ccccc1OCC(=O)Nc1ccc(N2CCN(C(=O)C(C)C)CC2)c(Cl)c1 is 3.98 µM (active)

---

target: Glucagon-like peptide 1 receptor (Homo sapiens); test: qHTS of GLP-1 Receptor Inverse Agonists (Inhibition Mode); conditions: HEK293 GLP-1R CRE-luciferase, luminescence, 24 h, GLP-1R form is constitutively active; series mostly up to 38.3 µM; also: nearly all actives have a fitted effect of over 55% in size
Screen size: about 410,000 compounds; about 6,400 (1.6%) were called active. Another 20% or so got no clear call; they are omitted. Calls come from the whole dose curve; as a rule, active = well fitted inhibition curve with a large enough effect; inconclusive = small, poorly fitted or top-dose-only effect; inactive = no such curve, though single readings can be large or run the other way. This excerpt belongs to a sample that is enriched for actives.
Please answer using one outcome listed in active, inactive

CCN1CC(CN(C)Cc2nc(-c3ccc(Cl)cc3)no2)CC1=O (centres undefined)	inactive
Cc1ccc(S(=O)(=O)N(Cc2nc(-c3ccc(Cl)cc3)no2)C2CCCCC2)cc1	active
Cc1ccc([C@@H]2CC(=O)[C@@H]3CN(S(=O)(=O)c4ccc(C)cc4)[C@H](c4ccccc4F)C[C@@H]3N2S(=O)(=O)c2ccc(Cl)cc2)cc1	inactive

Give the logged outcome of this assay for the following compound: OC(CNCC1CCCO1)Cn1c2ccc(Br)cc2c2cc(Br)ccc21 (centres undefined)
active

---

target: Glucagon-like peptide 1 receptor (Homo sapiens); assay: qHTS of GLP-1 Receptor Inverse Agonists (Inhibition Mode); settings: HEK293 GLP-1R CRE-luciferase, luminescence, 24 h, GLP-1R form is constitutively active; series mostly up to 38.3 µM; also: nearly all actives have a fitted effect of over 55% in size
Hit rate of the full screen: of about 410,000 compounds, about 6,400 (1.6%) were called active. Not shown: some 20% with an inconclusive outcome. The call rests on the fitted dose curve; in most records, active means well fitted inhibition curve with a large enough effect; inconclusive means small, poorly fitted or top-dose-only effect; inactive means no such curve, though single readings can be large or run the other way. This is one part of a sample in which actives are shown more often than they occur.
Permitted responses: t for active, f for inactive

Could you please tell me the result logged for CCOC(=O)[C@]12CCC=C1N(CCC1=CCCCC1)C(=O)[C@H](CC(=O)NCc1ccc(C)o1)C2 in this assay?
f

Entry COc1ccc(C(O)C(O)(C(=O)OC(C)C)c2ccc(C)cc2)cc1 (stereo unspecified) : call = ?
f

What did the test return for CN1CCN(C(=O)c2ccc(NC(=O)c3ccc(Br)o3)cc2)CC1 ?
f

I would be grateful if you could indicate the recorded call for COc1cccc(NC(=O)CN(C)C(=O)/C=C/c2cn(-c3ccccc3)nc2-c2cccs2)c1 .
t

Returns: the outcome recorded for CCCNc1ncnc2c1c(-c1ccccc1)cn2-c1ccc(OCC)cc1 in this assay.
t

Short answer needed: outcome of this test for CC1(C)OC(=O)C2=C(C[C@@H](C3CC3)O[C@H]2c2ccc(Cl)cc2)O1 ?
f
